Data origin: patent US12673052B2

ASSAY_TARGET: hERG channel (Homo sapiens, UniProt Q12809)
Sequence (Q12809 whole entry): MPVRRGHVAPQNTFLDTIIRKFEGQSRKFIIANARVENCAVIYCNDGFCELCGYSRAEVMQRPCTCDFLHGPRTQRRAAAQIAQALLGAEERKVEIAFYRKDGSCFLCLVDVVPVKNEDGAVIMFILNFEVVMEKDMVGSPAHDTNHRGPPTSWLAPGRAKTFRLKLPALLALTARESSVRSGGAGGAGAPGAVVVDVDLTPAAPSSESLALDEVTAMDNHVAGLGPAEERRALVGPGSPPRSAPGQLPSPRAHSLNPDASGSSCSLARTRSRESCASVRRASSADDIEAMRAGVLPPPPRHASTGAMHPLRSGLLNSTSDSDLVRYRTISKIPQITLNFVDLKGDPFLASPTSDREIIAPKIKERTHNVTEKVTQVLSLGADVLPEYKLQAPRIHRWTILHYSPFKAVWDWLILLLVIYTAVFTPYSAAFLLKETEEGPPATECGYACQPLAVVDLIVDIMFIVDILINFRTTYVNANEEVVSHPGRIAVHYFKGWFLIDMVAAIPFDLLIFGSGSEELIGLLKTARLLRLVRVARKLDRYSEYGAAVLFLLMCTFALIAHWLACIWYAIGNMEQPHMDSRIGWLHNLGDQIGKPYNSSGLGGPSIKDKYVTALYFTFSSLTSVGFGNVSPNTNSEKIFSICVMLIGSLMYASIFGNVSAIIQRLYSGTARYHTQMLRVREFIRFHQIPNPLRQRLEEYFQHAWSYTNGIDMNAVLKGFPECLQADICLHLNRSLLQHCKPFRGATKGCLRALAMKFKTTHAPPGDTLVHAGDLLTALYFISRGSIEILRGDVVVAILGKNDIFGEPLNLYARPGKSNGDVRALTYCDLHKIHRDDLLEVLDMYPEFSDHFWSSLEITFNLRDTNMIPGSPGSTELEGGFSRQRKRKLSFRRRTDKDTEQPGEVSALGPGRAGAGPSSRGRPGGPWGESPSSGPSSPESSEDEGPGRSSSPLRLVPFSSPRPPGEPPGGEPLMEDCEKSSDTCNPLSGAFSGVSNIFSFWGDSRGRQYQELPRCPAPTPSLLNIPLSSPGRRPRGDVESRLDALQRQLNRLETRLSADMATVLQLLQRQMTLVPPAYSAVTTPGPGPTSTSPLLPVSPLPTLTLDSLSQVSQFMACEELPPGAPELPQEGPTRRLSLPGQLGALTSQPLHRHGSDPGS
PROTOCOL_DETAILS: In vitro hERG channel inhibition

- COMPOUND: "CNC(=O)c1cc2c(Oc3ccc(NC(=O)C4(C(=O)Nc5ccc(F)cc5)CC4)cc3)ccnc2cc1OC [Compound 1]"
  IC50: "~4 µM"

====

PROTOCOL_DETAILS: Phase 1 first-in-human Study Compound 1-001 (NCT03845166): plasma pharmacokinetics
Assay type: in vivo
DETAILS: human, plasma, oral, 80 mg, 80 mg Tablet; First Dose (Day 1); mean ± SD; read-out: AUC0-24
VALUE_KIND: AUC(0-t)

- COMPOUND: "CNC(=O)c1cc2c(Oc3ccc(NC(=O)C4(C(=O)Nc5ccc(F)cc5)CC4)cc3)ccnc2cc1OC [Compound 1]"
  ENDPOINT_VALUE: "11000 ng·h/mL"
